test: Tissue distribution following oral administration of reference compounds and the disclosed compounds; type: in vivo, rats; conditions: rat; prodrug level in the liver 1 hour after oral administration at 5 mg/kg dose in rats (Table 2); read-out: Drugliver
// assign t if concentration at 1 h falls strictly below 400 ng/g, else f (ties count as f)

CCCCCCCOP1(=O)OC[C@H]2O[C@@H](n3cc(F)c(=O)[nH]c3=O)C[C@@H]2O1 (some centres unmarked) [Compound 201]
f
O=c1[nH]c(=O)n([C@H]2C[C@@H]3OP(=O)(OCC4(c5ccccc5)CC4)OC[C@H]3O2)cc1F (some centres unmarked) [Compound 217]
t
O=c1[nH]c(=O)n([C@H]2C[C@@H]3OP(=O)(OCCCC4CCCC4)OC[C@H]3O2)cc1F (some centres unmarked) [Compound 207]
f
C[C@H](NP(=O)(OC[C@H]1O[C@@H](n2cc(F)c(=O)[nH]c2=O)C[C@@H]1O)Oc1cccc2ccccc12)C(=O)OCc1ccccc1 (some centres unmarked) [NUC-3373, reference compound]
t
O=c1[nH]c(=O)n([C@H]2C[C@@H]3OP(=O)(OCCCc4ccccc4)OC[C@H]3O2)cc1F (some centres unmarked) [Compound 220]
f

Could you please tell me whether concentration at 1 h recorded for CCCCCOC(=O)Nc1nc(=O)n([C@@H]2O[C@H](C)[C@@H](O)[C@H]2O)cc1F [Capecitabine, reference compound] is less than 400 ng/g? t

Threshold test, concentration at 1 h < 400 ng/g: CCCCCCCCOP1(=O)OC[C@H]2O[C@@H](n3cc(F)c(=O)[nH]c3=O)C[C@@H]2O1 (some centres unmarked) [Compound 202] f

Please check: concentration at 1 h for O=c1[nH]c(=O)n([C@H]2C[C@@H]3OP(=O)(OCc4ccc(F)cc4C4OCCO4)OC[C@H]3O2)cc1F (some centres unmarked) [Compound 219] , strictly under 400 ng/g or not? t

---

assay: Tissue distribution following oral administration of reference compounds and the disclosed compounds; assay type: in vivo, rats; conditions: rat; drug level in the liver 1 hour after oral administration at 5 mg/kg dose in rats (Table 1); read-out: Drugliver
Reported concentration at 1 h values for a set of compounds

O=c1[nH]c(=O)n([C@H]2C[C@@H]3OP(=O)(Oc4ccccc4)OC[C@H]3O2)cc1F (stereo partly shown)
1980 ng/g
O=c1[nH]c(=O)n([C@H]2C[C@@H]3OP(=O)(OCc4ccccc4F)OC[C@H]3O2)cc1F (stereo partly shown)
< 6 ng/g
COc1ccc(C2O[C@@H]3[C@H](O2)[C@@H](C)O[C@H]3n2cc(F)c(=O)[nH]c2=O)cc1 (stereo partly shown)
1220 ng/g

Moving on to the next compound.
Field concentration at 1 h (entry CCCCCCCCCOP1(=O)OC[C@H]2O[C@@H](n3cc(F)c(=O)[nH]c3=O)C[C@@H]2O1 (stereo partly shown) ) reads 1370 ng/g

---

Experiment: Tissue distribution following oral administration of reference compounds and the disclosed compounds
Type: in vivo, rats
Settings: rat; drug level in the blood 1 hour after oral administration at 5 mg/kg dose in rats (Table 1); read-out: Drugblood
Procedure: The liver specificity of the disclosed compounds is compared relative to a corresponding active compound in liver and other organs that could be targets of toxicity. Reference compounds and the cyclic deoxyribonucleotide, acetal, and hemiaminal compounds are administered at 5-50 mg/kg to fasted rats by oral gavage. […]
In this section we review reported concentration at 1 h values for a set of compounds.
Please state the figure in µg/mL; there is no need to write the unit.

# concentration at 1 h of O=c1[nH]c(=O)n([C@H]2C[C@@H]3OP(=O)(OCc4ccc(C(F)(F)F)cc4)OC[C@H]3O2)cc1F (stereo partly drawn) [Compound 156] = 0.00366

Field concentration at 1 h (entry O=c1[nH]c(=O)n([C@H]2C[C@@H]3OP(=O)(OCc4ccccc4F)OC[C@H]3O2)cc1F (stereo partly drawn) [Compound 139] ) reads 0.0113

Just so you know, measured concentration at 1 h for O=c1[nH]c(=O)n([C@H]2C[C@@H]3OP(=O)(Oc4ccccc4)OC[C@H]3O2)cc1F (stereo partly drawn) [Compound 122] came out at 0.301
